target: Somatostatin receptor 1 (SSTR1) (human), P30872; test: competition with 125I-Tyr11 SST14; settings: octanoyl moiety at the N-terminus (N-octanoyl amide); L-mesityl alanine (Msa) at position 5; D-Trp at position 7; disulfide bridge between the two cysteines
Sequence (P30872 whole entry): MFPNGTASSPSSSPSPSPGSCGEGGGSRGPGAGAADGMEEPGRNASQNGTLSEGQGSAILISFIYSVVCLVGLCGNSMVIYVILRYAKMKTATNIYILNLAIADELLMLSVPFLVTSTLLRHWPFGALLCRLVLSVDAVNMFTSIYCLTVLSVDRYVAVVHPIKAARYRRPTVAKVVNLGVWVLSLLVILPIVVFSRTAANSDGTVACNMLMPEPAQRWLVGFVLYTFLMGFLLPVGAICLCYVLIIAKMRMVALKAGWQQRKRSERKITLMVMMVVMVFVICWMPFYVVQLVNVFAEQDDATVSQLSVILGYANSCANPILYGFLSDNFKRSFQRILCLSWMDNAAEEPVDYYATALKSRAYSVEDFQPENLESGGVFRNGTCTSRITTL
property: pIC50
Numbers only, as −log10 of the molar value.

[in] Fill in the blank: the reported pIC50 of PCKNFFWKTFTSCK [Cortistatin analogue 5] is ____.
[out] 7.33
